From: patent US20240116985A1

Target: T1, full-length beta-Catenin (Uniprot ID P35222) (Homo sapiens (Human), UniProt P35222 2-781)
T1 construct: also called B-Catenin; bCat
T1 sequence: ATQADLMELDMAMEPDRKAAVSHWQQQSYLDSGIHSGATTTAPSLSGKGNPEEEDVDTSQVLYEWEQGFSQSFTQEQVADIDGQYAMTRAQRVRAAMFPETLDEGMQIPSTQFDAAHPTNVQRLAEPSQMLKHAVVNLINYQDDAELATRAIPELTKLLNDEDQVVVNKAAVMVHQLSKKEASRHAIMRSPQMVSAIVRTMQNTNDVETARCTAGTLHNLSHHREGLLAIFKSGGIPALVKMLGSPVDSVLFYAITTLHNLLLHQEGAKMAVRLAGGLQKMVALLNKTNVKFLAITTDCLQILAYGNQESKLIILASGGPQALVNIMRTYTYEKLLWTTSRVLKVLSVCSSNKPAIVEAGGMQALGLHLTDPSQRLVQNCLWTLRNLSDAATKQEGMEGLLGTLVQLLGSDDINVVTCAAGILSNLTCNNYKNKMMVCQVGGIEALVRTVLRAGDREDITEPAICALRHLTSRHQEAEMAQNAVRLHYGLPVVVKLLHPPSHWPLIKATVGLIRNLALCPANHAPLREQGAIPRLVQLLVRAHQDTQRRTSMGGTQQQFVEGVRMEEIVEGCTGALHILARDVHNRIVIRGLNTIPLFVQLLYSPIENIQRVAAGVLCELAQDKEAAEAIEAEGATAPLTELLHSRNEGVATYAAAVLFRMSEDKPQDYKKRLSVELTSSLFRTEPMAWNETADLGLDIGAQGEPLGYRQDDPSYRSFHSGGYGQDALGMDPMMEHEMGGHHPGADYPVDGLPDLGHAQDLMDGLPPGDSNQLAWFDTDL
Experiment: fluorescence polarization competition; 5FAM-TCF4(10-53) probe with full-length beta-catenin
Starred links: 1 amine or outer side, 2 acyl side, 3 side chain; linkers in the order of their positions; H or OH if unused. Positions of bridges follow the written chain, without caps; N, C: chain ends. Non-standard residues stand in square brackets, D forms with d. Primed or numbered codes have the meaning given here. B5(10) = 2-amino-2-(pent-4-en-1-yl)hept-6-enoic acid, bis(4-pentenyl)glycine, stitching residue bearing both staples, C=CCCCC(CCCC=C)(N[*:1])C(=O)[*:2]; SeN″ = (S)-5-(((allyloxy)carbonyl)(methyl)amino)-2-amino-2-methylpentanoic acid (stapling residue), C=CCOC(=O)N(C)CCC[C@](C)(N[*:1])C(=O)[*:2]; B5(4) = 2,2-bis(4-pentenyl)glycine = 2-amino-2-(pent-4-en-1-yl)hept-6-enoic acid (stitching residue), C=CCCCC(CCCC=C)(N[*:1])C(=O)[*:2]; B5(5) = 2,2-bis(4-pentenyl)glycine, 2-amino-2-(pent-4-en-1-yl)hept-6-enoic acid (stitching residue), C=CCCCC(CCCC=C)(N[*:1])C(=O)[*:2]; B5(28) = 2,2-bis(4-pentenyl)glycine, C=CCCCC(CCCC=C)(N[*:1])C(=O)[*:2]; S7 = C[C@@](CCCCCC=[*:3])(N[*:1])C(=O)[*:2]; αAllylPro = C=CC[C@@]1(C(=O)O)CCCN1; Aad = N[C@@H](CCCC(=O)O)C(=O)O; S8 = C=CCCCCCC[C@](C)(N)C(=O)O; Aib = CC(C)(N)C(=O)O

binder	EC50, nM
Ac-[αAllylPro]DA[B5(4)]DEAAFV[S8]FWQ-NH2 (staple 1-4, 4-11, Stitched (two-staple) peptide composition) [I-123]	2110
Ac-[αAllylPro]DA[B5(4)]DEAAFV[SeN″]FWQ-NH2 (staple 1-4, 4-11, Stitched (two-staple) peptide composition; same description as I-130, separate later-eluting HPLC peak (staple isomer)) [I-131]	2160
XDAXDNAAFVXFWQ (not fully specified; as printed: Ac-PL3-Asp-Ala-B5-Asp-Asn-Ala-Ala-Phe-Val-S8-Phe-Trp-Gln-NH2; staples PL3(1)-B5(4) and B5(4)-S8(11), Stitched (two-staple) peptide composition) [I-125]	3060
Ac-[αAllylPro]DA[B5(28)]DEAAFV[S8]FW[Aib]-NH2 (staple 1-4, 4-11, Stitched (two-staple) peptide composition) [I-134]	2700
XDAXDEAAFVXFWX (not fully specified; as printed: Ac-PL3-Asp-Ala-B5-Asp-Glu-Ala-Ala-Phe-Val-S8-Phe-Trp-Aib-NH2; staples PL3(1)-B5(4) and B5(4)-S8(11), Stitched (two-staple) peptide composition) [I-133]	5000
Ac-[αAllylPro]DA[B5(10)]D[Aad]AAFV[S8]FWQ-NH2 (staple 1-4, 4-11, Stitched (two-staple) peptide composition) [I-129]	1980
Ac-[αAllylPro]DA[B5(5)]DQAAFV[S8]FWQ-NH2 (staple 1-4, 4-11, Stitched (two-staple) peptide composition) [I-127]	4840
Ac-[αAllylPro]DA[B5(4)]DEAAFV[S7]FWQ-NH2 (staple 1-4, 4-11, Stitched (two-staple) peptide composition) [I-132]	5000
